# Test Target: OGA (Homo sapiens)
# Construct: endogenous in cells; host or cells: HEK293 cells inducible for P301L mutant human Tau (2N4R)
# Assay Overview: OGA cellular assay (ICC detection of O-GlcNAcylated proteins in HEK293 cells inducible for P301L mutant human Tau)
# Assay type: cell-based
# Conditions: HEK293, HEK293 cells inducible for P301L mutant human Tau, maximal effect; Thiamet G 200 uM as maximum

| Molecule | Test Target | Emax |
| --- | --- | --- |
| Cc1cc(OC[C@H]2CCCN(C(C)c3nc4c(cc3F)OCCO4)C2)cc(C)n1 (stereo partly shown) | OGA (Homo sapiens) | 94% |
| Cc1cc([C@@H]2CCCN([C@@H](C)c3ccc4c(n3)OCCO4)C2)cc(C)n1 (single isomer, unassigned) | OGA (Homo sapiens) | -4% |
| Cc1cc(C2CCCN(C(C)c3cc4c(cc3F)OCCO4)C2)cc(C(F)(F)F)n1 (stereo not shown) | OGA (Homo sapiens) | 92% |
| Cc1cc(C2CCCN(C(C)c3ccc4c(n3)OCCO4)C2)cc(C(F)F)n1 (stereo not shown) | OGA (Homo sapiens) | 79% |
